# System: OVCAR-4
# EXPERIMENTAL_DETAILS: NCI tumour cell line growth inhibition, 48 h
The source made the active and inactive calls. Rule as the data show it: active = GI50 up to about 1.1 µM and inactive = higher.
Each entry below carries its recorded GI50.

These recorded examples may help you get a feel for the data.
CN(C)c1ccc(C(C=C2c3ccccc3Sc3ccccc32)=C(C#N)C#N)cc1 : 16 µM (inactive)
N#Cc1c(-c2ccc([N+](=O)[O-])cc2)cc(-c2ccc(Nc3ccnc4cc(C(F)(F)F)ccc34)cc2)nc1N : 7.6 µM (inactive)

Attention now shifts to the item below.
Give GI50 (OVCAR-4) of the following compound: C[C@H](CCc1nc(C#N)c(N)o1)[C@H]1CC[C@H]2[C@@H]3[C@@H](O)CC4C[C@@H](O)CC[C@]4(C)[C@H]3C[C@@H](O)[C@]12C (some centres undefined) 1.99 µM (inactive)

====

Each entry below carries its recorded GI50.
# Test system: RXF 393
# EXPERIMENTAL_DETAILS: NCI tumour cell line growth inhibition, 48 h
Calls of active or inactive are those of the source. Rule as the data show it: active = GI50 up to about 1.1 µM and inactive = higher.

COc1cc(CNC(=S)CCCCCCCCCCC(C)C)ccc1O : > 100 µM (inactive)
Cc1nc(-n2nc(-c3ccccc3)cc2-c2ccccc2)sc1C(/C=C/c1ccc([N+](=O)[O-])cc1)=N/NC(=O)c1ccncc1 : 22.4 µM (inactive)
c1ccc2c(Cc3c[nH]c4ccccc34)c[nH]c2c1 [ARUNDINE] : 15.6 µM (inactive)
COCC12CCC(OC)C34C5CC6(O)C(OC)CC(OC(C)=O)(C5C6OC(=O)c5ccccc5)C(C(OC)C13)C4N(C)C2 (stereo unspecified) : > 100 µM (inactive)
O=C1c2ccccc2S(=O)(=O)c2c1cccc2[N+](=O)[O-] : 2.9 µM (inactive)
COc1ccc(Nc2nc3cc(C(F)(F)F)ccc3n3cccc23)cc1OC : 10.8 µM (inactive)

So what does the record say about GI50 for CCOP(=O)(O)C1C(CO)OC(n2ccc(=O)[nH]c2=O)C1O (stereo unspecified) ? > 100 µM (inactive)

So what does the record say about GI50 for Cc1ccc(S(=O)(=O)N/N=C(\c2nc3ccc(Cl)cc3nc2O)C(O)c2cccc([N+](=O)[O-])c2)cc1 (stereo unspecified) ? > 100 µM (inactive)

So what does the record say about GI50 for COc1ccc2c3c1OC1C(=O)C=CC4(O)C(C2)NCC[C@@]314 (stereo partly specified) ? 1.39 µM (inactive)

So what does the record say about GI50 for `COc1ccc(/N=C2/C(=N/c3ccc(OC)cc3)N(c3ccccc3)C(=S)N2N=C=C2Sc3ccccc3N2C)cc1` ? 3.75 µM (inactive)

====

Each entry below carries its recorded GI50.
# Tested on: UACC-257
# EXPERIMENTAL_DETAILS: NCI tumour cell line growth inhibition, 48 h
Calls of active or inactive are those of the source. Cut-off read from the data, not from the text of the source: active = GI50 up to about 1.1 µM and inactive = higher.

These recorded examples may help you get a feel for the data.
COC(O)C(=O)c1c2c(cc3c1CCC3)CCC2 (stereo unspecified) : > 100 µM (inactive)
Nc1n[n+]([O-])c2ccccc2[n+]1[O-] : 72.4 µM (inactive)
Cc1cc2c(O)c(c1)COCc1cc(C)cc(c1O)COCc1cc(C)cc(c1O)COC2 : > 100 µM (inactive)
Cc1cc(C)n(-c2nc(C)c(CCO)c(=O)[nH]2)n1 : > 100 µM (inactive)
CO[C@]12C#CC=CC#C[C@@H](O)[C@]3(CCC1)O[C@@]23c1cccc(O)c1 : > 100 µM (inactive)

So what does the record say about GI50 for `OCCCCn1cc(Cn2ncc3c(SCc4ccccc4)ncnc32)nn1` ? 49.4 µM (inactive)

So what does the record say about GI50 for `COC(=O)C1=C(C(=O)OC)SC(=CC#CC=C2SC(C(=O)OC)=C(C(=O)OC)S2)S1` ? > 54.3 µM (inactive)

So what does the record say about GI50 for `O=C1CCC(=O)N1CNc1ccc2c(c1)Sc1ccccc1O2` ? 46.7 µM (inactive)

====

# Tested on: UACC-62
# EXPERIMENTAL_DETAILS: NCI tumour cell line growth inhibition, 48 h
Active and inactive are the calls of the source. Rule as the data show it: active = GI50 up to about 1.1 µM and inactive = higher.
Each entry below carries its recorded GI50.

C/C(=C/CC[C@](C)(OC1OC(CO)C(O)C(O)C1OC1OC(C)C(O)C(O)C1O)[C@H]1CC[C@]2(C)[C@@H]1CC[C@@H]1[C@@]3(C)CC[C@H](O)C(C)(C)[C@@H]3C[C@H](O)[C@]12C)CO (some centres undefined) : > 100 µM (inactive)

So what does the record say about GI50 for CC(=O)OC[C@H]1O[C@@H](O[C@H]2[C@H](OC(C)=O)C=CO[C@@H]2COC(C)=O)C(OC(C)=O)[C@H]2OC(C)(C)O[C@H]21 (some centres undefined) ? > 100 µM (inactive)

====

Each entry below carries its recorded GI50.
# System: SK-MEL-2
# EXPERIMENTAL_DETAILS: NCI tumour cell line growth inhibition, 48 h
Calls of active or inactive are those of the source. No stated cut-off is given here; in the data, active = GI50 up to about 1.1 µM and inactive = higher.

CC1(C)C2C=C(CCN3CCOCC3)CC1C2 (stereo not given) : > 100 µM (inactive)

So what does the record say about GI50 for OC(c1cc2ccccc2[nH]1)C1(c2cccnc2)SCCCS1 (stereo not given) ? 19.1 µM (inactive)

So what does the record say about GI50 for Cc1ccc(C2(N3CCOCC3)OC(C)(C)c3cccc4cccc2c34)cc1 (stereo not given) ? 15.6 µM (inactive)

So what does the record say about GI50 for CC(O)C(NC(=O)C(CS)NC(=O)C(CO)NC(=O)C(CCCCN)NC(=O)C(Cc1c[nH]c2ccccc12)NC(=O)C(Cc1ccc(O)cc1)NC(=O)C(CS)NC(=O)C(N)Cc1ccccc1)C(N)=O (stereo not given) ? > 25 µM (inactive)

So what does the record say about GI50 for COc1cccc2c1C(=O)c1c(O)c3c(c(O)c1C2=O)CC(O)(C(O)CO)CC3OC1CC2C(OC3COCC(C#N)N32)C(C)O1 (stereo not given) ? < 0.01 µM (active)

====

# Tested on: SW-620
# EXPERIMENTAL_DETAILS: NCI tumour cell line growth inhibition, 48 h
The source made the active and inactive calls. Cut-off read from the data, not from the text of the source: active = GI50 up to about 1.1 µM and inactive = higher.
PROPERTY_MEASURED: GI50

These recorded examples may help you get a feel for the data.
O=S(=O)(O)c1cc(/N=[N+](\[O-])c2ccc(/N=N/c3ccccc3)cc2S(=O)(=O)O)ccc1/C=C/c1ccc(/N=[N+](\[O-])c2ccc(/N=N/c3ccccc3)cc2S(=O)(=O)O)cc1S(=O)(=O)O : > 100 µM (inactive)
COc1cc(Cn2c(=S)ss/c2=N\C(=S)N(C)C)cc(OC)c1OC : 2.81 µM (inactive)
CCCC(c1cc(C(C)(C)C)c(O)cc1C)c1cc(C(C)(C)C)c(O)cc1C : 3.23 µM (inactive)
NCCCCCNOCCCN : > 100 µM (inactive)
O=C1c2ccccc2C(=O)N1c1ccc(OCCN2CCCCC2)cc1 : > 100 µM (inactive)
Cc1ccc2c(c1)nc(N)n[n+]2[O-] : > 100 µM (inactive)
CC1(C)C2C=C(CCN3CCOCC3)CC1C2 (stereo not given) : > 100 µM (inactive)
N#C/N=C(/NCCc1c[nH]c2ccccc12)Oc1ccccc1 : > 100 µM (inactive)
CN1C(=O)n2c(nc3ccccc32)C(N=[N+]=[N-])(N=[N+]=[N-])C1=O (stereo not given) : > 100 µM (inactive)

Attention now shifts to the item below.
Give GI50 (SW-620) of the following molecule: `O=c1[nH]c2cc(-c3ccccc3)nc-2nn1-c1c(Cl)cc(Cl)cc1Cl` 33.7 µM (inactive)

====

# Tested on: U-251
# EXPERIMENTAL_DETAILS: NCI tumour cell line growth inhibition, 48 h
Calls of active or inactive are those of the source. No stated cut-off is given here; in the data, active = GI50 up to about 1.1 µM and inactive = higher.
PROPERTY_MEASURED: GI50

So what does the record say about GI50 for `CN(C)CCNC(=O)c1cccc2ccc(-c3ccncc3)nc12` ? 1.63 µM (inactive)

====

# Test system: A549
# EXPERIMENTAL_DETAILS: NCI tumour cell line growth inhibition, 48 h
The source made the active and inactive calls. Rule as the data show it: active = GI50 up to about 1.1 µM and inactive = higher.
Each entry below carries its recorded GI50.

OC(CC1CCCCN1)c1ccc2c(c1)oc1ccccc12 (stereo unspecified) : > 100 µM (inactive)
Cc1ccc([Se][Se]c2ccc(C)cc2)cc1 : 33.3 µM (inactive)
CCN(CC)Cc1cc(Nc2ccnc3ccc4c(nnn4C)c23)ccc1O : 12.2 µM (inactive)
CCCN(CCC)C(=O)c1c(N2CCN(C)CC2)c2cccnc2n2c(C)cnc12 : > 100 µM (inactive)
COC(=O)N1CCc2c(nc(N(C)CCO)[nH]c2=O)C1 : > 100 µM (inactive)
CCCCC1c2c([nH]c3ccccc23)C2C(=O)N(c3ccc(OC)cc3)C(=O)C2C1CCC (stereo unspecified) : 5.13 µM (inactive)
NC(=O)N/C=C1\C(=O)Oc2ccccc2C1=O : 10 µM (inactive)
CO[C@@]12C[C@@H](CNC(=O)c3cc(Br)c[nH]3)O[C@@H]1NC(=O)N2 : > 100 µM (inactive)

So what does the record say about GI50 for `S=C(Nc1ccccc1)c1ccc(CN2CCCCC2)s1` ? 29.6 µM (inactive)

So what does the record say about GI50 for Nc1nc(SCc2ccc([N+](=O)[O-])cc2)nc2c1ncn2C1OC(COP(=O)(O)O)C(O)C1O (stereo unspecified) ? > 100 µM (inactive)
